# Tested on: MALME-3M melanoma
# assay: NCI tumour cell line growth inhibition, 48 h
measurement_label: TGI

Recorded TGI, per entry:
In: Which value of TGI has been reported for Cn1c(=O)c2nc(N3CCOCC3)cnc2n(C)c1=O in the records?
Out: > 100 µM

In: Requested read-out: TGI. Entry: O=S1CCN(Cc2ccc(-c3ccc4ncnc(Nc5ccc(OCc6cccc(F)c6)c(Cl)c5)c4c3)o2)CC1
Out: 23.2 µM

In: Reported TGI for O=C(/C=C/c1ccsc1)c1ccc(Cl)cc1 : what is it?
Out: 95.3 µM

In: What TGI value was documented for this compound, C=CCNC(=O)N1CC(C)C(=O)Nc2ccccc21 (stereo unspecified) ?
Out: > 100 µM

In: Which TGI is listed for Cc1cccc2c(C(=O)O[C@H](C(N)=O)[C@]3(C)CO3)cccc12 ?
Out: 10.6 µM

New cases:
In: Which value of TGI has been reported for COc1cc2cc3c4c(cc(OC)c(OC)c4c2cc1OC)CCN3 in the records?
Out: > 100 µM

In: Reported TGI, compound N=[N+]=NC1C(O)C(CO)OC1n1cnc2c(N)ncnc21 (stereo unspecified) : ____
Out: > 100 µM

In: If you can, please state the reported TGI value of CC(=O)N1CCc2[nH]c3ccccc3c2CC1 .
Out: > 100 µM

====

# Tested on: HOP-62 NSCLC
# assay: NCI tumour cell line growth inhibition, 48 h; in the data active = GI50 below about 0.43 µM; inactive = the rest
Please state which outcome applies, choosing from TRUE (active), FALSE (inactive)

In: Recorded test call requested for CNc1ccc(C(=O)CC(O)CCC(C)C2OC(=O)CC(O)CC(=O)CC(O)CC(O)CC(O)CC(O)CC3(O)CC(O)C(C(=O)NCCN(C)C)C(CC(OC4OC(C)C(O)C(NC(=O)CN5CCN(CCO)CC5)C4O)/C=C/C=C/C=C/C=C\C=C/C=C/C=C/C2C)O3)cc1 (stereo not given)
Out: FALSE

In: Which result was noted for this compound in the test: COc1cc(C2=NNC(c3ccc(N(C)C)cc3)C2)cc(OC)c1OC (stereo not given)
Out: FALSE

In: Per the assay record, what outcome was assigned to Clc1ccc(CCC(Cn2ccnc2)Sc2c(Cl)cccc2Cl)cc1 (stereo not given) ?
Out: FALSE

New cases:
In: State the result this test recorded for NS(=O)(=O)N(c1cc(C(F)(F)F)cc(C(F)(F)F)c1)C1CCN(Cc2ccc(F)cc2)CC1 .
Out: FALSE

In: Just curious, what result did CCN(Cc1ccncc1)c1ccc(CO)c(Cl)c1 get here?
Out: FALSE

In: # lookup: test call for Cc1cccc2c(C(=O)O[C@H](C(N)=O)[C@]3(C)CO3)cccc12
Out: FALSE

In: Test call for this compound, please: Cn1ncc2c(Sc3ccc(Cl)cc3)ncnc21
Out: FALSE

In: Look up the recorded call for COc1cc(-c2n[nH]nc2-c2ccc3c(c2)OCCO3)cc(OC)c1OC in this test.
Out: TRUE

In: Hi, sorry to bother you, what did the test record for COc1ccc(C2CC(c3cc(Cl)c(C)cc3O)=NN2c2ccc(S(N)(=O)=O)cc2)cc1OC (stereo not given) ?
Out: FALSE

In: What did this assay record as the result for CS(=O)(=O)Nc1cc(-c2ccc3ncnc(Nc4ccc5c(cnn5Cc5cccc(F)c5)c4)c3c2)cnc1Cl ?
Out: FALSE

====

Measured GI50, listed per entry for reference.
# Test system: UACC-257 melanoma
# assay: NCI tumour cell line growth inhibition, 48 h

In: Please provide the recorded GI50 for COc1cc(/C=N/Nc2ncnc3[nH]ncc23)ccc1O , tested on UACC-257 melanoma.
Out: > 21800 nM

In: Param readout = GI50; param system = UACC-257 melanoma; param query = Cn1ncc2c(Sc3ccc(Cl)cc3)ncnc21 ; response: value
Out: > 100000 nM

In: Item: COc1cc(C2=NNC(c3ccc(N(C)C)cc3)C2)cc(OC)c1OC (stereo unspecified) Test system: UACC-257 melanoma Read-out: GI50 Value: ?
Out: 8610 nM

In: Record CCCCCCCCc1cc[n+](CC(=O)c2ccc(Br)cc2)cc1 : what is its GI50 with UACC-257 melanoma?
Out: 1640 nM

In: // lookup GI50 | system=UACC-257 melanoma | key= NS(=O)(=O)N(c1cc(C(F)(F)F)cc(C(F)(F)F)c1)C1CCN(Cc2ccc(F)cc2)CC1
Out: 11500 nM

In: Recall the recorded GI50 for O=C1/C(=C/c2ccc(Cl)cc2)COc2ccc(O)cc21 with UACC-257 melanoma and state it.
Out: 3160 nM

In: Tell me reported GI50 for CCN(Cc1ccncc1)c1ccc(CO)c(Cl)c1 , tested with UACC-257 melanoma.
Out: 237 nM

In: # get_value(readout= GI50, system= UACC-257 melanoma) for CNc1ccc(C(=O)CC(O)CCC(C)C2OC(=O)CC(O)CC(=O)CC(O)CC(O)CC(O)CC(O)CC3(O)CC(O)C(C(=O)NCCN(C)C)C(CC(OC4OC(C)C(O)C(NC(=O)CN5CCN(CCO)CC5)C4O)/C=C/C=C/C=C/C=C\C=C/C=C/C=C/C2C)O3)cc1 (stereo unspecified)
Out: 935 nM

Others:
In: Observed GI50 on UACC-257 melanoma for Nc1cc2c([nH]c[n+]2CC#CCCl)c(SCC#CCCl)n1 , please.
Out: 821 nM

In: State its GI50 on UACC-257 melanoma: O=S1CCN(Cc2ccc(-c3ccc4ncnc(Nc5ccc(OCc6ccccc6)c(Cl)c5)c4c3)o2)CC1
Out: 8550 nM

In: # get_value(readout= GI50, system= UACC-257 melanoma) for CCCCCCCCc1ccc(OCCOCC[N+](C)(C)CC)cc1 (tested in a mixture with another compound)
Out: 2340 nM

====

Some compounds, each annotated with its measured TGI.
# Test system: UO-31 renal
# assay: NCI tumour cell line growth inhibition, 48 h
Hi! Could you send only the number? It should be in µM, unit omitted.

In: Recorded TGI of C=CN1CCN(c2ccccc2)P1(=O)Oc1ccccc1 (stereo not given) , please.
Out: 92.8

In: Form field: reported TGI of COc1cc(C(=O)/C=C/c2ccc(OCCCCCC[P+](c3ccccc3)(c3ccccc3)c3ccccc3)cc2)cc(OC)c1OC
Out: 2.78

Moving on to another compound below.
In: For the compound NCCOc1ncccc1/C=C1\c2ccccc2-c2ccc(F)cc21 , what TGI is on record?
Out: 2.34

====

# System: KM20L2 colon
# assay: NCI tumour cell line growth inhibition, 48 h
measurement_label: TGI

In: For the record O=C(O/N=C1/CCCC/C1=C\c1ccccc1)c1ccc(Cl)c(Cl)c1 , what value of TGI is listed for KM20L2 colon?
Out: > 100 µM

***
In: Item COc1cc2cc3c4c(cc(OC)c(OC)c4c2cc1OC)CCN3 with KM20L2 colon - TGI?
Out: 88.5 µM

In: Please provide the recorded TGI for CCOc1ccccc1NC(=O)CC1Sc2ccccc2NC1=O (centres undefined) , tested on KM20L2 colon.
Out: > 100 µM

In: GET /values?readout=TGI&system=KM20L2 colon&item= COc1ccc(=[O+]C)c2nssc1-2
Out: > 100 µM

====

# Tested on: UO-31 renal
# assay: NCI tumour cell line growth inhibition, 48 h
measurement_label: TGI

In: Returns the measured TGI for the input compound. Input: CC(=O)c1sc2c(c1OC(=O)c1ccc(Cl)cc1)c(=O)n(-c1ccccc1)c(=S)n2-c1ccccc1
Out: 9.24 µM

Next:
In: Request the reported TGI associated with CCCCNCC(O)c1cc2c(Cl)cc(Cl)cc2c2cc(C(F)(F)F)ccc12 (stereo not given)
Out: 2.83 µM

In: Name the reported TGI value associated with the compound CS(=O)(=O)Nc1cc(-c2ccc3ncnc(Nc4ccc5c(cnn5Cc5cccc(F)c5)c4)c3c2)cnc1Cl
Out: 3.96 µM

In: Fill blank: measured TGI of the compound CC(=O)OCC1OC(Sc2nc(-c3ccc(Cl)cc3)c(C#N)c(=O)n2C2OC(COC(C)=O)C(OC(C)=O)C(OC(C)=O)C2OC(C)=O)C(OC(C)=O)C(OC(C)=O)C1OC(C)=O (stereo not given) is ____.
Out: > 100 µM

In: Recorded TGI of CCOc1nc(OCC)nc(-c2cccn2-c2ccccc2)n1 , please.
Out: 67.9 µM

====

# Test system: MCF7 breast
# assay: NCI tumour cell line growth inhibition, 48 h; in the data active = GI50 below about 0.43 µM; inactive = the rest
Respond with a class label; see True = active, False = inactive

Examples from the recorded data:
In: Per the records of this test, what outcome belongs to CCCC(c1nnnn1C1CCCCC1)N1CCN(C(=O)c2ccco2)CC1 (stereo unspecified) ?
Out: False

In: Please share the test call associated with CCN1CCC(Oc2c(C#N)ncc3[nH]c4ncccc4c23)CC1 .
Out: True

In: Query: recorded result category for O=C(CCl)Nc1ccc2c(c1)C(=O)c1ccccc1C2=O in this test
Out: False

New cases:
In: Which outcome did this test record for the molecule COc1ccc2c(c1)C(=O)c1c-2n(CCCCl)c(=O)c2cc(OC)c(OC)cc12 ?
Out: False

In: GET /call?item= COc1ccc(/C=C(\C#N)c2ccc(OC)cc2)cc1 returns the recorded outcome of this test.
Out: False

In: Would you mind telling me which call this test gave Cc1cccc2c(C(=O)O[C@H](C(N)=O)[C@]3(C)CO3)cccc12 ?
Out: True
